Where these numbers come from: the Human Domainome abundance scans (Beltran et al. 2025)

Known abundance fitness of a selection of variants
B1: POU domain, class 2, transcription factor 2, residues 200 to 269; numbered along this chain, P09086 (parent)
chain: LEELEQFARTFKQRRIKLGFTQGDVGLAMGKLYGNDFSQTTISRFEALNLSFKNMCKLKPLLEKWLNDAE

# Variants of: B1
# TEST SUMMARY: abundance fitness (aPCA) (normalised: wild type 0, dead -1); higher = more abundant; growth selection in yeast, the domain comes from the species named
# TEST CONTEXT: Homo sapiens

Some variants with recorded abundance fitness:
{"VARIANT": "L62E", "abundance fitness": -0.974}
{"VARIANT": "I42D", "abundance fitness": -0.857}
{"VARIANT": "K12A", "abundance fitness": -0.254}
{"VARIANT": "T40F", "abundance fitness": -0.041}
{"VARIANT": "T40S", "abundance fitness": 0.032}

abundance fitness lookup needed for `E46A` , thanks.
-0.765

abundance fitness lookup needed for `K12W` , thanks.
-0.337

abundance fitness lookup needed for `R15S` , thanks.
-1

abundance fitness lookup needed for `Y33W` , thanks.
-0.105

abundance fitness lookup needed for `L58G` , thanks.
-0.619
